system: T1, human CD11a (human) (UniProt P20701)
T1 sequence (looked up): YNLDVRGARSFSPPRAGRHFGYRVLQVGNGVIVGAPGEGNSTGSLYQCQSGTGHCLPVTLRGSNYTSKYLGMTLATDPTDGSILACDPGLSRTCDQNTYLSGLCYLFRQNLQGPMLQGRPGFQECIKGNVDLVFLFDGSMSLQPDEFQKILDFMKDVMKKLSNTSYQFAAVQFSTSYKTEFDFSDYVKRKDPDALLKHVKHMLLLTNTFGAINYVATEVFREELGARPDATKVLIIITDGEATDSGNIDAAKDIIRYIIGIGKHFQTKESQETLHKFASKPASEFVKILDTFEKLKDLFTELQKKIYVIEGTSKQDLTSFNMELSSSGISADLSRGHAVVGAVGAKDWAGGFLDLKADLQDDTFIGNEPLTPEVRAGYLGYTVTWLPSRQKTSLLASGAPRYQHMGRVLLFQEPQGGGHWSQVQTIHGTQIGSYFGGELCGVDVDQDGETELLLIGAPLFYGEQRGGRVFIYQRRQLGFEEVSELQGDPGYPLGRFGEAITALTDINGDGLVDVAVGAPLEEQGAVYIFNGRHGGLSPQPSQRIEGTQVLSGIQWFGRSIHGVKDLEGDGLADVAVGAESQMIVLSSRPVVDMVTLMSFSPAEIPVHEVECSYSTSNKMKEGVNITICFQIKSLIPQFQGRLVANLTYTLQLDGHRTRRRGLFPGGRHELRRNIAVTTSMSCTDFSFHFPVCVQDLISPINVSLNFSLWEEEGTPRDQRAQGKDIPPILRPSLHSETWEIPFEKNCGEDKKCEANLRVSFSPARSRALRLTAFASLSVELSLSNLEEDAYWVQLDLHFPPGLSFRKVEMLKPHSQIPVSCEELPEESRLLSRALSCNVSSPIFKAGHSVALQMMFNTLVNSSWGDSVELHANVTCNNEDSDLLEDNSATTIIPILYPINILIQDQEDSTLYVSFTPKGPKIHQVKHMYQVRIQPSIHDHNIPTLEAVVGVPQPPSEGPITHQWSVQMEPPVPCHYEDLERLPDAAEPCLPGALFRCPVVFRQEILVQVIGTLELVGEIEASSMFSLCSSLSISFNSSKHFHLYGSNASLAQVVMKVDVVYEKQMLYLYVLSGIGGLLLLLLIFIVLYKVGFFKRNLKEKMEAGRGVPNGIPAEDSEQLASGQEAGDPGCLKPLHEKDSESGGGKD
procedure-details: FACScan, Jurkat cells
measure: EC50 F(ab)/EC50 F(ab)-2

| binder | recorded-value |
| --- | --- |
| humanized MHM24 F(ab)-3 (Fab, V domains shown) VH: EVQLVESGGGLVQPGGSLRLSCAASGFSFTGHWMNWVRQAPGKGLEWVGMIHPSDSETRYNQKFKDRATISVDNSKNTLYLQMNSLRAEDTAVYYCARGIYFYGTTYFDYWGQGTLVTVSS VL: DIQMTQSPSSLSASVGDRVTITCRASKTISKYLAWYQQKPGKAPKLLIYSGSSLESGVPSRFSGSGSGTDFTLTISSLQPEDFATYYCQQHNEYPLTFGQGTKVEIK | 1.2 |
| humanized MHM24 F(ab)-8 (Fab, V domains shown) VH: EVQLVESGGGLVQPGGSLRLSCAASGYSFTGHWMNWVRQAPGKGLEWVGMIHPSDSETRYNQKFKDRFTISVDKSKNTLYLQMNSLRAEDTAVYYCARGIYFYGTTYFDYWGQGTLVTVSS VL: DIQMTQSPSSLSASVGDRVTITCRASKTISKYLAWYQQKPGKAPKLLIYSGSTLQSGVPSRFSGSGSGTDFTLTISSLQPEDFATYYCQQHNEYPLTFGQGTKVEIKR | 0.004 |
| humanized MHM24 F(ab)-5 (Fab, V domains shown) VH: EVQLVESGGGLVQPGGSLRLSCAASGFSFTGHWMNWVRQAPGKGLEWVGMIHPSDSETRYNQKFKDRFTISVDKSSSTLYLQMNSLRAEDTAVYYCARGIYFYGTTYFDYWGQGTLVTVSS VL: DIQMTQSPSSLSASVGDRVTITCRASKTISKYLAWYQQKPGKAPKLLIYSGSSLESGVPSRFSGSGSGTDFTLTISSLQPEDFATYYCQQHNEYPLTFGQGTKVEIK | 0.043 |
| humanized MHM24 F(ab)-4 (Fab, V domains shown) VH: EVQLVESGGGLVQPGGSLRLSCAASGFSFTGHWMNWVRQAPGKGLEWVGMIHPSDSETRYNQKFKDRFTISRDNSKNTLYLQMNSLRAEDTAVYYCARGIYFYGTTYFDYWGQGTLVTVSS VL: DIQMTQSPSSLSASVGDRVTITCRASKTISKYLAWYQQKPGKAPKLLIYSGSSLESGVPSRFSGSGSGTDFTLTISSLQPEDFATYYCQQHNEYPLTFGQGTKVEIK | 2.9 |
